Biological target: recombinant human NF-kappaB-inducing kinase (NIK/MAP3K14) (Homo sapiens, UniProt Q99558)
Sequence (Q99558 whole entry): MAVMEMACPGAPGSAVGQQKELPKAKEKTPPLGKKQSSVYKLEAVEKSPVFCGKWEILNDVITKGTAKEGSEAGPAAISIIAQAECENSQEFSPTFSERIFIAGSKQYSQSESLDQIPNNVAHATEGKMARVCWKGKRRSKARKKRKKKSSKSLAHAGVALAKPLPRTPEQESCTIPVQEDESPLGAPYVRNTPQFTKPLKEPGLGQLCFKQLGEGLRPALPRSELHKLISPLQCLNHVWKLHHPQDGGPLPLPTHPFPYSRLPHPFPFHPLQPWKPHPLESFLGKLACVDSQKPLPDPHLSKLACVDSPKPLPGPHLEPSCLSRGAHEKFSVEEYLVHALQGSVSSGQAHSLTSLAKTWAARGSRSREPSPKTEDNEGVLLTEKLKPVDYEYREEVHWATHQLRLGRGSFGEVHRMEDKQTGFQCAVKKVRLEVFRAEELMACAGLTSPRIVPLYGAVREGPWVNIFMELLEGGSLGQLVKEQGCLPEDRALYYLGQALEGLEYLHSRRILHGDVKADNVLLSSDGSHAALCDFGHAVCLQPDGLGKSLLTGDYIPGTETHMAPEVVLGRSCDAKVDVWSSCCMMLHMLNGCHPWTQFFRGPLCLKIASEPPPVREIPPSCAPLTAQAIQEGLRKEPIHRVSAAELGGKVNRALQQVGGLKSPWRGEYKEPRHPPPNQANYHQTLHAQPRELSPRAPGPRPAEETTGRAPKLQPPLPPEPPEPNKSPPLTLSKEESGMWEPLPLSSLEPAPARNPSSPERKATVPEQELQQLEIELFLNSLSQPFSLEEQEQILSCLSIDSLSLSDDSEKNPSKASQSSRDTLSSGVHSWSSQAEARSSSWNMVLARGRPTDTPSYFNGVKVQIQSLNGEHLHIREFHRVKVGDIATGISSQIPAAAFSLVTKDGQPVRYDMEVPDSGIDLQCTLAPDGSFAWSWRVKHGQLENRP
Assay: Biological Assay B: inhibition of auto-phosphorylation of recombinant human NIK/MAP3K14 (AlphaScreen), performed at 2 locations
Format: biochemical
Settings: location 2; AlphaScreen auto-phosphorylation; averaged values; read-out: Assay B location 2 IC50
pIC50: −log10 of the molar value.
Readings of pIC50 for the listed molecules
reportedEndpoint: pIC50

                                   molecule  quantitativereadout
0  COCCN1CC(c2cc(OC)c(Nc3nccc(-c4cnc5c(c4)C(C)(CO)CN5)n3)cc2Cl)C1 (centres unmarked) [Compound 321]                 8.80
1  CC1(CO)CNc2ncc(-c3ccnc(Nc4cc(Cl)c(N5CCOCC5)cc4Cl)n3)cc21 (centres unmarked) [Compound 362]                 8.44
2  COc1cc(N)c(Cl)cc1Nc1nccc(-c2cnc3c(c2)C(C)(CO)CN3)n1 (centres unmarked) [Compound 11]                 9.15
3  COc1cc(Nc2nccc(-c3cnc4c(c3)C(C)(CO)CN4)n2)cc(C(F)(F)F)c1 (centres unmarked) [Compound 193]                 7.64
4  Cc1cc(N2CCOCC2)ccc1Nc1nccc(-c2cnc3c(c2)C(C)(CO)CN3)n1 (centres unmarked) [Compound 216]                 7.32
5  COc1cc(C(=O)N2CCC(OC)C2)ccc1Nc1nccc(-c2cnc3c(c2)C(C)(CO)CN3)n1 (centres unmarked) [Compound 136]                 8.48
6  COc1cc(C(=O)N2CCC(OC)C2)c(Cl)cc1Nc1nccc(-c2cnc3c(c2)C(C)(CO)CN3)n1 (centres unmarked) [Compound 290]                 8.85
7  Cc1cc(C(=O)NC2CN(C)C2)ccc1Nc1nccc(-c2cnc3c(c2)C(C)(CO)CN3)n1 (centres unmarked) [Compound 89]                 7.69
